Each recorded value in this set is attributed to patent US20250042994A1.

Target: T1, Human CD19-his protein (human, UniProt P15391 20-291)
T1 construct: bought protein; also called recombinant human CD19-His; CD19 full-length protein; not shown: His tag
T1 sequence (looked up): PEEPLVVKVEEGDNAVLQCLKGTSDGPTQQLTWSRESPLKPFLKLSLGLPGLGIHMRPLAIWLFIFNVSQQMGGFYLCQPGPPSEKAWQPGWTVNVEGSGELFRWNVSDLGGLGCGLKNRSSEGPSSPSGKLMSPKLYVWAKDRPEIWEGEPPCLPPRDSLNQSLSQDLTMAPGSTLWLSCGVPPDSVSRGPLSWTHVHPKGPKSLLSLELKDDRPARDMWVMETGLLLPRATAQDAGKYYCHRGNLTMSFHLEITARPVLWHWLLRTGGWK
Assay: SPR Biacore, Ab captured on Protein A, CD19-His analyte
Experimental: A sample buffer and a running buffer were HBS-EP+ (10 mM HEPES, 150 mM NaCl, 3 mM EDTA and 0.05% surfactant P20) (GE Healthcare; BR-1006-69). The flow-through cell was set to 25° C. The sample block was set to 16° C. […] In each cycle, an antibody to be detected was first captured with a Protein A chip, and then a single concentration of CD19 antigen protein was injected. […] The dissociation phase was monitored for up to 600 s and was triggered by switching from sample solution to running buffer. […]
PROPERTY LABEL: pKd
Recall that pKd is obtained by taking minus log10 of the concentration measured in molar.

F4.48.12 (antibody, human IgG1, V domains shown, human-murine chimeric antibody, human IgG1 constant) VH: QMQLKESGPGLVAPSQSLSITCTVSGFSLTDYGVSWIRQPPGKGLEWLGVIWGSGSTFYNSALTSRLSISKDNSKSQVFLKMNSLQTADTAMYFCAKHHYYGGSFAMDYWGQGTSVTVSS VL: DIQMTQASSSLSASLGDRVTISCKTSQDISNYLNWYQQKPDGTFKLLIHYTSRLHSGVPSRFSGSGSGSDYSLTISNLEREDIATYFCQQGNSLPYTFGGGTKLEMK
9.31
F4.49.11 (antibody, human IgG1, V domains shown, human-murine chimeric antibody, human IgG1 constant) VH: DVQLRASGPGLVKPSQSLSLTCSVTGYSITSGYYWNWIRQFPGNKLEWMGCISYDGTNNYNPSLKNRISFTRDTSKNQFFLNLNSVTTEDSATYYCARRVYYRYDGVVDYWGQGTSVTVSS VL: ENVLTQSPAIMSASPGEKVTMTCSASSSVSYIHWYQQKSSTAPKLWIYDTSKLASGVPGRFSGSRSRNSYSLTISSMEAEDVATYYCFQGSGYPLTFGSGTKLEIK
7.75

Record F4.82.11 (antibody, human IgG1, V domains shown, human-murine chimeric antibody, human IgG1 constant) VH: QVTLKESGPGILQASQTLSLTCSFSGFSLSTFGIGVGWVRQPSGKGLEWLAHIWWNDNKFFNTTLKNRLTLSKDPSNNQVFLKIASVDTADTATYYCARSRSALITTGLYAMDYWGQGTSVTVSS VL: DIQMTQTPSSLSASLGDRVTISCRSSQDISNYVNWYQQKPDGTVKVLINYTSRLHSGVPSRFSGSGSGTDYSLTISNLEQEDIASYFCQQGFTLPYTFGGGTKLEIK . Reported pKd: 7.64
